Test system: TC71 (human ESFT cell line)
ASSAY_PROTOCOL: IC50 activity in TC71 cells
Assay type: cell-based
PROTOCOL_CONDITIONS: Homo sapiens, TC-71, TC71 cells
pIC50: −log10 of the molar value.
READOUT_KIND: pIC50

Past entries and their recorded results:
compound=CN(C)c1ccc(C(=O)/C=C2/C(=O)Nc3c(Cl)ccc(Cl)c32)cc1 result=5.39
compound="COc1ccc(C(=O)CC2(O)C(=O)Nc3c(Cl)cccc32)cc1 (stereo not drawn)" result="≤ 4.40"
compound="COc1ccc(C(=O)CC2(O)C(=O)Nc3c(Cl)ccc(Cl)c32)cc1OC (stereo not drawn)" result="≤ 4.40"

For every listed record, write down its pIC50.
1. COc1cccc(C(=O)CC2(O)C(=O)Nc3c(Cl)ccc(Cl)c32)c1 (stereo not drawn)
2. Nc1ccc(C(=O)CC2(O)C(=O)Nc3c(Cl)ccc(Cl)c32)cc1 (stereo not drawn)
3. COc1ccc(C(=O)CC2(O)C(=O)Nc3c(Cl)ccc(Cl)c32)c(OC)c1 (stereo not drawn)
4. CCOc1ccc(C(=O)CC2(O)C(=O)Nc3c(Cl)ccc(Cl)c32)cc1 (stereo not drawn)
5. COc1ccc(C(=O)CC2(O)C(=O)Nc3ccccc32)cc1 (stereo not drawn)
6. O=C(CC1(O)C(=O)Nc2c(Cl)ccc(Cl)c21)c1ccccc1Cl (stereo not drawn)

1. ≤ 4.40
2. ≤ 4.40
3. 5.55
4. 5.45
5. ≤ 4.40
6. ≤ 4.40
